test: Toxicity: LD50 in mice by the intraperitoneal route (log-probits method of Miller and Tainter); details: mouse, in vivo, ip
Experimental Readout: LD50 (mg/kg)

* OC(C=Cc1ccc(Cl)cc1)CN1CCOCC1 (centres unmarked) | 400
* OC(C=Cc1ccc(F)cc1)CN1CCOCC1 (centres unmarked) | 800
* Oc1ccc(C=CC(O)CN2CCOCC2)cc1 (centres unmarked) | 650
* C#CCOc1ccc(C=CC(O)CN2CCOCC2)cc1 (centres unmarked) | 400
* C=CCOc1ccc(C=CC(O)CN2CCOCC2)cc1 (centres unmarked) | 300

* * *

experiment: Toxicity: LD50 in mice by the intraperitoneal route (log-probits method of Miller and Tainter); settings: mouse, in vivo; mice, IP
Experimental Readout: LD50 (mg/kg)

- COc1ccc(C=CC(O)CN2CCOCC2)cc1 (stereo not shown): 500
